Each recorded value in this set is attributed to the supplement of paper PMC3334620.

Target: Abf1 (UniProt P14164)
Sequence: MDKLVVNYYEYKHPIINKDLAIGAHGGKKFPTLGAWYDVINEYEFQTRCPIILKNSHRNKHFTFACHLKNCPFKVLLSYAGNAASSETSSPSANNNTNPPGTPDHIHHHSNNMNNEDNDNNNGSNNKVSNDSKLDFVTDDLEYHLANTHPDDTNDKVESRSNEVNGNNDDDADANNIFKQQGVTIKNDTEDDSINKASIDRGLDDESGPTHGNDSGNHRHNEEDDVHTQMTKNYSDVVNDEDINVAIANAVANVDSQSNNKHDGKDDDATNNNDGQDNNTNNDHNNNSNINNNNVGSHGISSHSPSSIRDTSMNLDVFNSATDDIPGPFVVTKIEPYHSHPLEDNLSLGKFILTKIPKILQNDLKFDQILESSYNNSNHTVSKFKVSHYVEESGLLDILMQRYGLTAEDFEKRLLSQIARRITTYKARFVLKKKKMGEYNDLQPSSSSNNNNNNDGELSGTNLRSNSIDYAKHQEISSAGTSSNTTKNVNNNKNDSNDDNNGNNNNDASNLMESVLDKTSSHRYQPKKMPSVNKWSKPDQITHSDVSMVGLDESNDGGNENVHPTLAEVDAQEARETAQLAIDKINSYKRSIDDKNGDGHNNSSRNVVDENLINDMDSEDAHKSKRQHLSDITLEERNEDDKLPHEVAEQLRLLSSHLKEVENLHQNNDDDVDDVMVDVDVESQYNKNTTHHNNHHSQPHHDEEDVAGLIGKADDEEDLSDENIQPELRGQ
Assay: PBM E-score (8-mer binding enrichment) (E-score (-0.5 to 0.5)); higher = stronger / more preferred TF binding
Settings: protein concentration: 200 nM; construct: GST-full length
Over roughly 33,000 sequences, “E-score (-0.5 to 0.5)” has its median near -0.015; the highest 2% begin near 0.3. The sample as a whole holds a higher share of the highest values than the screen did.
VALUE_KIND: PBM E-score

Solved cases (6 shown):
>>> test_value("CGAAGGCA")
-0.148
>>> test_value("GAGGGGGC")
-0.346
>>> test_value("TCGTGTCA")
0.326
>>> test_value("AGGCTCTG")
-0.089
>>> test_value("GCGATTTA")
0.114
>>> test_value("AATAATTA")
0.2

Given the sequence AACCGGGC , what is its reported PBM E-score? -0.103

Given the sequence GCTTTTTA , what is its reported PBM E-score? 0.0686

Given the sequence CCGTGTCA , what is its reported PBM E-score? 0.268

Given the sequence AGTACAAG , what is its reported PBM E-score? 0.0462

Given the sequence GGCTCGAC , what is its reported PBM E-score? -0.0785

Given the sequence TCATGTCA , what is its reported PBM E-score? 0.332

Given the sequence TGAATTCA , what is its reported PBM E-score? 0.171

Given the sequence CATTGTGC , what is its reported PBM E-score? -0.115

Given the sequence GGGGAATA , what is its reported PBM E-score? -0.112

Given the sequence ACCCTACT , what is its reported PBM E-score? -0.231

Given the sequence AACCGGTC , what is its reported PBM E-score? -0.154

Given the sequence CAAATCGC , what is its reported PBM E-score? -0.0589

Given the sequence TAGAAGCA , what is its reported PBM E-score? -0.0239

Given the sequence GCGTGGAA , what is its reported PBM E-score? -0.105

Given the sequence AACTGCTG , what is its reported PBM E-score? -0.0316

Given the sequence ACGTGGAA , what is its reported PBM E-score? 0.118

###

Below, each of the sequences is paired with its reported PBM E-score value.
Target: Abf1 (UniProt P14164)
Sequence: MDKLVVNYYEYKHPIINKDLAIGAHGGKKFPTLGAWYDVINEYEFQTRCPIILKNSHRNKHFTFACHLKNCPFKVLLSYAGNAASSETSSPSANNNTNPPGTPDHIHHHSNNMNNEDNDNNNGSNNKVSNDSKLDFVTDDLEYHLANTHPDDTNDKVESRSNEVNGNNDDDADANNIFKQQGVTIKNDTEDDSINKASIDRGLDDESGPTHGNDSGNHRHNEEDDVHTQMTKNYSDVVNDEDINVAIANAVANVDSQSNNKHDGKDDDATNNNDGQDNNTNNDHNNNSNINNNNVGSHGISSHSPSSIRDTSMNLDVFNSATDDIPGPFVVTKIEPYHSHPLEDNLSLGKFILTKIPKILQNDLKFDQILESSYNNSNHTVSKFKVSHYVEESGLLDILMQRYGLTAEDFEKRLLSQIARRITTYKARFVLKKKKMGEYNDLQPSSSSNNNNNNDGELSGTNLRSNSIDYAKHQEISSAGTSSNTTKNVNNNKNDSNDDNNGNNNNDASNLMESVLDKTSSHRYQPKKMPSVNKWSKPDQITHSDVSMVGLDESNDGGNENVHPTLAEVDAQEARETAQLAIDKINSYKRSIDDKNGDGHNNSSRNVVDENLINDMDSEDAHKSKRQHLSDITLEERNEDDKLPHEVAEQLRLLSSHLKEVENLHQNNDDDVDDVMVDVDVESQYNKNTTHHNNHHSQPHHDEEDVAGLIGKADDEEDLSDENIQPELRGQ
Assay: PBM E-score (8-mer binding enrichment) (E-score (-0.5 to 0.5)); higher = stronger / more preferred TF binding
Conditions: protein concentration: 200 nM; construct: GST-full length
The full ranking holds about 33,000 sequences; the median of “E-score (-0.5 to 0.5)” is about -0.015, and the highest 2% start at about 0.3. For the sample, the highest values were picked, then their nearest neighbours and some sequences at random.
The answer should be a number; do not append a unit.

Solved cases (10 shown):
>>> test_value("CCTATGCA")
0.018
>>> test_value("CGTCATAG")
0.143
>>> test_value("AGTCATTA")
0.037
>>> test_value("CACTTCAG")
0.0421
>>> test_value("CAACCGCA")
-0.0837
>>> test_value("CGGTACGA")
0.291
>>> test_value("CCGTACGA")
0.451
>>> test_value("GGGGACGA")
0.135
>>> test_value("AGGTTTGA")
-0.188
>>> test_value("TCGTAAGA")
0.154

Given the sequence GGTCATTA , what is its reported PBM E-score? 0.134

Given the sequence AAGTGGTC , what is its reported PBM E-score? -0.131

Given the sequence ACGGGTCC , what is its reported PBM E-score? 0.142

Given the sequence CGTCATCA , what is its reported PBM E-score? 0.349

Given the sequence CCGGTTCC , what is its reported PBM E-score? -0.286

Given the sequence AGTGAAGG , what is its reported PBM E-score? -0.145

Given the sequence AGTCATCA , what is its reported PBM E-score? 0.135

Given the sequence CAGAGGAA , what is its reported PBM E-score? -0.148

Given the sequence AATGTTGC , what is its reported PBM E-score? 0.00562

Given the sequence CGTCATCC , what is its reported PBM E-score? 0.167

Given the sequence CAATCGTG , what is its reported PBM E-score? 0.122

Given the sequence CGTCATTA , what is its reported PBM E-score? 0.327

###

Biological target: Abf1 (UniProt P14164)
Sequence: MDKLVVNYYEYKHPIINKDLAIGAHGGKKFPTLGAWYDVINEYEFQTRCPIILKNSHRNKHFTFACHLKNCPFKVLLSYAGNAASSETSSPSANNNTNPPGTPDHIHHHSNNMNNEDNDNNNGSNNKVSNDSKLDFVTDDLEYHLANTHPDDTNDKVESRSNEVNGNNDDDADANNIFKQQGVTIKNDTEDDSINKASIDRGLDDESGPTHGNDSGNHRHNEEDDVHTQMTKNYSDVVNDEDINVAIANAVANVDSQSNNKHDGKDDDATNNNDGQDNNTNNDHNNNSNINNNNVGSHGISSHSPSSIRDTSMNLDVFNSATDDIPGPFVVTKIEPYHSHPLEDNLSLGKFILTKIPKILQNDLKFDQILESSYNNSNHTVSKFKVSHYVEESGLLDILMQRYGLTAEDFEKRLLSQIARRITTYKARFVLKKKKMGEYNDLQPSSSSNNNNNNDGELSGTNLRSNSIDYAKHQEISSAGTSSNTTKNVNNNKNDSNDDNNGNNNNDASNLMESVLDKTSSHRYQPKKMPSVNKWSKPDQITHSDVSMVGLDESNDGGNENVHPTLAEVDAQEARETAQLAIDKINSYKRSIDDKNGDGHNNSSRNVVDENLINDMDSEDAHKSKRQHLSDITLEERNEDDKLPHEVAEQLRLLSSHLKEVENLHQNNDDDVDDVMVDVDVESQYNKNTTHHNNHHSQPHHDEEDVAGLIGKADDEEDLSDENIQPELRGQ
Test: PBM E-score (8-mer binding enrichment) (E-score (-0.5 to 0.5)); higher = stronger / more preferred TF binding
Settings: protein concentration: 200 nM; construct: GST-full length
The full ranking holds about 33,000 sequences; the median of “E-score (-0.5 to 0.5)” is about -0.015, and the highest 2% start at about 0.3. Shown is part of a subset that was picked to be rich in the highest values.
Field: class. Source value: PBM E-score. Ranges: group 1: < -0.03; group 2: ≥ -0.03 and < 0.2; group 3: ≥ 0.2

>>> assigned_category("CGGACGAG")
"group 2"
>>> assigned_category("CGGACGAC")
"group 3"
>>> assigned_category("GAACGACA")
"group 3"
>>> assigned_category("AAACGACT")
"group 2"
>>> assigned_category("CAACCTAC")
"group 1"
>>> assigned_category("AAACGACG")
"group 3"
>>> assigned_category("CAACGACA")
"group 3"
>>> assigned_category("GGTTGGAA")
"group 1"
>>> assigned_category("CAATGCCC")
"group 1"
>>> assigned_category("AATGAAGT")
"group 2"

# evaluate next
Which class is correct for the following sequence? TCACTACA group 3
